Please go through the items and note down their kinase still bound, per cent of control.
molecular target: PLK3 (human) (UniProt Q9H4B4); test: KINOMEscan competition binding; conditions: compound 10.0 µM
Sequence (Q9H4B4 whole entry, looked up): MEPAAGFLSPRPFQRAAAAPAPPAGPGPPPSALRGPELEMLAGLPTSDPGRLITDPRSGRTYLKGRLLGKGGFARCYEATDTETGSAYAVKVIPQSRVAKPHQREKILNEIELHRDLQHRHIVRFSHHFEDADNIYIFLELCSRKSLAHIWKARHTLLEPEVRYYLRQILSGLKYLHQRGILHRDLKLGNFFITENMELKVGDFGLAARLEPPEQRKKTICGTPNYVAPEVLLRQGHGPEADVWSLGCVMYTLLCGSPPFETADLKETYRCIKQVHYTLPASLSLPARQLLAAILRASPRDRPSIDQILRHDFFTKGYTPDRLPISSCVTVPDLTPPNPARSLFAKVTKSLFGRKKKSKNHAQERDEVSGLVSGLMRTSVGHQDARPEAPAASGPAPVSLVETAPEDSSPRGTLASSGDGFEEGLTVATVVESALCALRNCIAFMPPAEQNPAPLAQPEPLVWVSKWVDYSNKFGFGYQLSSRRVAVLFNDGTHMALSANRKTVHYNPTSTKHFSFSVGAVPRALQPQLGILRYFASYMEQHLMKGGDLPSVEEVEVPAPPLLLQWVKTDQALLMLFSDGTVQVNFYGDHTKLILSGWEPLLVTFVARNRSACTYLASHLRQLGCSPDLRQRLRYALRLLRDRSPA
Give bare numbers, in %.

CCOc1cc(N2CCC(O)CC2)ccc1Nc1ncc2c(n1)N(C)c1ccccc1C(=O)N2C	100

Lab note: each molecule below needs its kinase still bound, per cent of control filled in.
1. COc1cc(N2CCC(C(N)=O)CC2)ccc1Nc1nc(N)c(Cl)c(Nc2ccccc2S(=O)(=O)C(C)C)n1
2. CC1=C(C(=O)Nc2cc3cn[nH]c3cc2F)C(c2ccc(C(F)(F)F)cc2)CC(=O)N1 (centres undefined)
3. C=CC(=O)Nc1ccc(C(=O)c2sc(Nc3ccc(N4CCN(C)CC4)cc3OC)nc2N)cc1
4. CCN(CCO)CCCOc1ccc2c(Nc3cc(CC(=O)Nc4cccc(F)c4)[nH]n3)ncnc2c1
5. CCN1CCN(Cc2ccc(NC(=O)c3ccc(C)c(/C=C/c4cnc5[nH]ccc5c4OC)c3)cc2C(F)(F)F)CC1
6. N#C/C(=C1/Nc2ccccc2S1)c1ccnc(NCCc2cccnc2)n1

Response:
[100, 84, 7.8, 89, 83, 12]

Lab note: each molecule below needs its kinase still bound, per cent of control filled in.
1. Cc1cn(-c2cc(C(=O)Nc3ccc(C)c(NC(=O)c4ccno4)c3)cc(C(F)(F)F)c2)cn1
2. COc1cc(C)c(Sc2cnc(NC(=O)c3ccc(CNC(C)C(C)C)cc3)s2)cc1C(=O)N1CCN(C(C)=O)CC1 (centres undefined)

Response:
1: 100; 2: 100
